Source: patent US10231453B2

Recorded chromatographic logP by entry
# protocol_text: Measurement of LogP values by HPLC on reversed phase columns (EEC directive 79/831 Annex V.A8)
# Assay type: physicochemical
# condition_set: method [a]: LC-UV, acidic range, 0.1% formic acid in water and acetonitrile as eluent; Table 1
API note: the answer field is a bare number with no unit suffix.

Record excerpt, results attached:
| molecule | measured_value |
| --- | --- |
| N#Cc1cncn1CC(O)(Cc1cc(F)cc(F)c1)C1(Cl)CC1 (centres unmarked) | 2.86 |
| OC(Cc1ccccc1F)(Cn1cncc1Cl)C1(Cl)CC1 (centres unmarked) | 2.07 |
| N#Cc1cncn1CC(O)(Cc1ccccc1F)C1CCC1 (centres unmarked) | 2.46 |
| N#Cc1cncn1CC(O)(Cc1cccc(Cl)c1F)C1(Cl)CC1 (centres unmarked) | 3.02 |

Consider now this further molecule.
Requested read-out: chromatographic logP. Entry: N#Cc1cncn1CC(O)(Cc1ccc(F)cc1F)C1(F)CC1 (centres unmarked)
2.39

---

Recorded pest or weed control at 500 ppm by entry
# Tested on: Botrytis cinerea
# protocol_text: In vivo preventive test on Botrytis cinerea (grey mould) on gherkin, Examples B, Q1 and R2
# condition_set: Botrytis cinerea, 500 ppm of active ingredient, preventive spray, evaluated 4 to 5 days after inoculation, read-out: efficacy

Record excerpt, results attached:
| compound | assayed_system | measured_value |
| --- | --- | --- |
| CC(C)(C)C(O)(Cc1ccccc1F)Cn1cncc1C#N (centres unmarked) [Example I-138] | Botrytis cinerea | 80 to 89% |
| OC(Cc1ccc(Cl)cc1Cl)(Cn1cncc1Cl)C1(Cl)CC1 (centres unmarked) [Example I-69] | Botrytis cinerea | 80 to 89% |
| CC1(C(O)(Cc2ccc(F)cc2F)Cn2cncc2C#N)CC1 (centres unmarked) [Example I-124] | Botrytis cinerea | 90 to 100% |
| CC(C)C(O)(Cc1cccc(F)c1F)Cn1cncc1C#N (centres unmarked) [Example I-149] | Botrytis cinerea | 70 to 79% |
| N#Cc1cncn1CC(O)(Cc1ccc(F)cc1F)CC1CC1 (centres unmarked) [Example I-130] | Botrytis cinerea | 90 to 100% |
| N#Cc1cncn1CC(O)(Cc1ccc(Br)cc1F)C1(Cl)CC1 (centres unmarked) [Example I-42] | Botrytis cinerea | 80 to 89% |
| N#Cc1cncn1CC(O)(Cc1cccc(Br)c1)C1(Cl)CC1 (centres unmarked) [Example I-45] | Botrytis cinerea | 80 to 89% |
| Cc1cccc(CC(O)(Cn2cncc2Cl)C2(Cl)CC2)c1 (centres unmarked) [Example I-73] | Botrytis cinerea | 90 to 100% |
| CC1(C(O)(Cc2ccccc2F)Cn2cncc2C#N)CC1 (centres unmarked) [Example I-131] | Botrytis cinerea | 70 to 79% |
| OC(Cc1cccc(F)c1F)(Cn1cncc1Cl)C1(Cl)CC1 (centres unmarked) [Example I-147] | Botrytis cinerea | 90 to 100% |

Requested read-out: pest or weed control at 500 ppm. Entry: Cc1ccccc1CC(O)(Cn1cncc1Cl)C1(Cl)CC1 (centres unmarked) [Example I-71]
90 to 100%

Requested read-out: pest or weed control at 500 ppm. Entry: OC(Cc1ccc(F)c(F)c1)(Cn1cncc1Cl)C1(Cl)CC1 (centres unmarked) [Example I-110]
90 to 100%

Requested read-out: pest or weed control at 500 ppm. Entry: OC(Cc1ccccc1F)(Cn1cncc1Br)C1(Cl)CC1 (centres unmarked) [Example I-33]
90 to 100%

Requested read-out: pest or weed control at 500 ppm. Entry: OC(Cc1ccc(Br)cc1Cl)(Cn1cncc1Cl)C1(Cl)CC1 (centres unmarked) [Example I-43]
90 to 100%

Requested read-out: pest or weed control at 500 ppm. Entry: Cc1cccc(CC(O)(Cn2cncc2C#N)C2(Cl)CC2)c1F (centres unmarked) [Example I-142]
80 to 89%

Requested read-out: pest or weed control at 500 ppm. Entry: OC(Cc1ccncc1Cl)(Cn1cncc1Cl)C1(Cl)CC1 (centres unmarked) [Example I-72]
70 to 79%

Requested read-out: pest or weed control at 500 ppm. Entry: Cc1cc(F)ccc1CC(O)(Cn1cncc1Cl)C1(Cl)CC1 (centres unmarked) [Example I-155]
90 to 100%

Requested read-out: pest or weed control at 500 ppm. Entry: C#Cc1cncn1CC(O)(Cc1ccccc1Cl)C1(Cl)CC1 (centres unmarked) [Example I-38]
90 to 100%

Requested read-out: pest or weed control at 500 ppm. Entry: N#CCc1cncn1CC(O)(Cc1ccccc1Cl)C1(Cl)CC1 (centres unmarked) [Example I-21]
90 to 100%

Requested read-out: pest or weed control at 500 ppm. Entry: OC(Cc1ccc(Cl)cc1F)(Cn1cncc1Br)C1(Cl)CC1 (centres unmarked) [Example I-30]
90 to 100%
